Test system: Escherichia coli (ECOL)
Assay Remarks: Minimum inhibitory concentration (MIC), broth two-fold serial dilution test
Measurement Setup: Escherichia coli, IIIB, read-out: MIC (G-) ECOL, trypticase soy broth (complex media); Table IIIb
Reported Endpoint: MIC (mg/L)

1) O=C(CNC(=O)OCc1ccccc1)OCC#CI [Compound 31] = 250
2) O=C(CNC(=O)c1ccccc1)OCC#CI [Compound 29, N-benzoylglycine iodopropargyl ester] = 125
3) O=CNCC(=O)OCC#CI [Compound 32, N-formylglycine iodopropargyl ester] = 63
4) C/C=C/C=C/C(=O)NCC(=O)OCC#CI [Compound 35, N-sorbylglycine iodopropargyl ester] = 125
5) CC(=O)NCC(=O)OCC#CI [Compound 28, N-acetylglycine iodopropargyl ester] = 63
